Molecular target: MDR1 (Homo sapiens, UniProt P08183)
Sequence (P08183 whole entry): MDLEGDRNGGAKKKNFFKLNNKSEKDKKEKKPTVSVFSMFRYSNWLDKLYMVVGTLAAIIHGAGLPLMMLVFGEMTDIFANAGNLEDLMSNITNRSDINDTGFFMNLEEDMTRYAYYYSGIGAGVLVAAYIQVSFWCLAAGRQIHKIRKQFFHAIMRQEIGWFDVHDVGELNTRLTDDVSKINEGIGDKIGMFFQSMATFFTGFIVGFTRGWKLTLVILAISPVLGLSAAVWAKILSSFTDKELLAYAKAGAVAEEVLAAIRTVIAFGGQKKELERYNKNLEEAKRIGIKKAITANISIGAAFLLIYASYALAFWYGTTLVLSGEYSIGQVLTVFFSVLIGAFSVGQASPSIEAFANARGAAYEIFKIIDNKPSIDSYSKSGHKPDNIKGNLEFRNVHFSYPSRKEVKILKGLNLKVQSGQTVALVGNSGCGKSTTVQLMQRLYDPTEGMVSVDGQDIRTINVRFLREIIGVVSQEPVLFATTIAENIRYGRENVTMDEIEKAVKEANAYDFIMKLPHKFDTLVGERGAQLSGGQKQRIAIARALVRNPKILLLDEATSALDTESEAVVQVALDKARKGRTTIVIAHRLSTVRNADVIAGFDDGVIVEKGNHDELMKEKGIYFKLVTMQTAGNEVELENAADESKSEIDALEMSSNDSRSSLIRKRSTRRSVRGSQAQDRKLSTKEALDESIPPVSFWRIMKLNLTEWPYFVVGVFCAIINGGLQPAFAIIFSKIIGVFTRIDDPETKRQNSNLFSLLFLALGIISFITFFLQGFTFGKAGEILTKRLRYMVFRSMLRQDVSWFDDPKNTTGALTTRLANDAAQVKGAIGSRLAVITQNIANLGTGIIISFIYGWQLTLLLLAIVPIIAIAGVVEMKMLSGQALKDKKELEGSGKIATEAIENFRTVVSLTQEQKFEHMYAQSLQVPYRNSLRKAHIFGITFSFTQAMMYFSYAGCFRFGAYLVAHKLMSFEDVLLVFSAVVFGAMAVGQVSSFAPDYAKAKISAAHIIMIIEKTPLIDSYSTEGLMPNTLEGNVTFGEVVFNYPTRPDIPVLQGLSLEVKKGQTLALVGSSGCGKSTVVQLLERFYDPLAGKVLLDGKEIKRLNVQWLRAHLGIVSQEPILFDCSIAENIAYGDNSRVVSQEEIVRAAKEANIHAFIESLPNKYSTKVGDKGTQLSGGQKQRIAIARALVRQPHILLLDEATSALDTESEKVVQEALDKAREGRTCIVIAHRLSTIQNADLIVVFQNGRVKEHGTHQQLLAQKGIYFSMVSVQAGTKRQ
Test: cell-based
Property Name: IC50 (µM)
Answer format: numeric, µM implied, no suffix.

Q) Param item = COc1ccc(-n2nc(CCC(=O)N(C)O)cc2-c2ccc(Cl)cc2)cc1 ; retrieve measured IC50.
A) 32

###

Target: MDR1 (Homo sapiens, UniProt P08183)
Experiment: cell-based
Property Name: pIC50
// scale note: pIC50 = -log10(conc_M); give the bare number

Q) What pIC50 value was documented for this compound, COc1ccc(-n2nc(CCC(=O)N(C)O)cc2-c2ccc(Cl)cc2)cc1 ?
A) 4.92
